- assay-target: sigma1 receptor (Cavia porcellus)
- Sequence (Q60492 whole entry): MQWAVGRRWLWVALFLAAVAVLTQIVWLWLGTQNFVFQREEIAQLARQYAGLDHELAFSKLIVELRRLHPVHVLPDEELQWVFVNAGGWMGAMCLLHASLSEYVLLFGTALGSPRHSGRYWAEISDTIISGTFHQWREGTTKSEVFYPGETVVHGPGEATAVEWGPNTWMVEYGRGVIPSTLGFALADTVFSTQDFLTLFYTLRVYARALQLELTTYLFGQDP
metric: Ki (µM)
Answer in µM, number only, no unit symbol.

Item under review: CCCCCCCCCCCCC/C=C/[C@@H](O)[C@@H](N)CO [D-erythro-sphingosine] . Reported Ki?
3.6
